Biological target: Androgen receptor (AR) (Homo sapiens, UniProt P10275, T878A)
Construct: 5.5×10^5 LNCap cells were injected into each well of a 6-well plate; endogenous in cells; host or cells: LNCaP
Sequence (P10275 whole entry T878A): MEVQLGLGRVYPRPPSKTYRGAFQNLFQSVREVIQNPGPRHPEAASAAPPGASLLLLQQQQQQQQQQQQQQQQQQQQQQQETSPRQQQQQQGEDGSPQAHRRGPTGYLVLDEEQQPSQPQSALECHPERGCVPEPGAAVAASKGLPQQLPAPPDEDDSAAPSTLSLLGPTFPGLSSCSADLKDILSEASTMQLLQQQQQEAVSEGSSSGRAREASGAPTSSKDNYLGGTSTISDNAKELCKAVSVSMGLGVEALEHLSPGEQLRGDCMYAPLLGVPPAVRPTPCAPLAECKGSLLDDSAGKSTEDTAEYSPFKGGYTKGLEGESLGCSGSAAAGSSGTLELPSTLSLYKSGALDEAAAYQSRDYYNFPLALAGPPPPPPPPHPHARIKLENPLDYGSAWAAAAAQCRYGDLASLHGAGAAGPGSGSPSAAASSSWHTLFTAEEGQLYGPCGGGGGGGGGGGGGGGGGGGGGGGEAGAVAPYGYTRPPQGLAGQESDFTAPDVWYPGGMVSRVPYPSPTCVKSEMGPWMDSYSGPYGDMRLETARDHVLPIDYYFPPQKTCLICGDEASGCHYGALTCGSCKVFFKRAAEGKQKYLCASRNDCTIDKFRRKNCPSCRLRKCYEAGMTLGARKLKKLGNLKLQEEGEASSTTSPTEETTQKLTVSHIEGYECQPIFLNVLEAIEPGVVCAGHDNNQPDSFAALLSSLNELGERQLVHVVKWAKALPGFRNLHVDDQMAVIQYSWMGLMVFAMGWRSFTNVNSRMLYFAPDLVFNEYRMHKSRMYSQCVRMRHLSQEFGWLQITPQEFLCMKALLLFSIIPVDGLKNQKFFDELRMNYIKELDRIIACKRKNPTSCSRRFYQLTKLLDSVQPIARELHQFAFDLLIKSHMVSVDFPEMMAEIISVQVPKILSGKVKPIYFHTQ
Experiment: Assessment of AR proteolytic activity (Western blotting of LNCap cell lysates)
Format: cell-based
Details: 24 hours of treatment, Western blotting quantified with Image J, read-out: Degradation (1 μM treated in LNCaP, % AR remaining)
outcome_measure: remaining activity at 1 µM (%)

a: CC1(C)[C@H](NC(=O)c2ccc(N3CCN(CCOC4CCN(C(=O)CNc5ccc6nnn(C7CCC(=O)NC7=O)c(=O)c6c5)CC4)CC3)cc2)C(C)(C)[C@H]1Oc1ccc(C#N)c(Cl)c1 (stereo partly drawn)
b: CC1(C)[C@H](NC(=O)c2ccc(N3CCN(CC4CCN(c5ccc6nnn(C7CCC(=O)NC7=O)c(=O)c6c5)CC4)CC3)cc2)C(C)(C)[C@H]1Oc1ccc(C#N)c(Cl)c1 (stereo partly drawn)
c: CC1(C)[C@H](NC(=O)c2ccc(N3CCN(CCOC4CCN(C(=O)COc5ccc6nnn(C7CCC(=O)NC7=O)c(=O)c6c5)CC4)CC3)cc2)C(C)(C)[C@H]1Oc1ccc(C#N)c(Cl)c1 (stereo partly drawn)
[in] // TODO: order the 3 molecules above by remaining activity at 1 µM, descending State the ranking by listing the labels in the requested order.
[out] b, a, c

###

Attribute: CC50
System: LNCaP cells
Assay: Cytotoxicity assessment (Cell-titer-glo cell viability), LNCaP
Conditions: Homo sapiens, LNCaP, 144 h, read-out: LNCAP (CC50, μM)
Answer in µM, number only, no unit symbol.

Example results:
| compound | test_value |
| --- | --- |
| CC1(C)[C@H](NC(=O)c2ccc(N3CCN(CCOC4CCN(c5ccc6nnn(C7CCC(=O)NC7=O)c(=O)c6c5)CC4)CC3)cc2)C(C)(C)[C@H]1Oc1ccc(C#N)c(Cl)c1 (some centres unmarked) [Example 34] | 0.523 |
| CC1(C)[C@H](NC(=O)c2ccc(N3CCN(CC4CCN(C(=O)COc5ccc6nnn(C7CCC(=O)NC7=O)c(=O)c6c5)CC4)CC3)cc2)C(C)(C)[C@H]1Oc1ccc(C#N)c(Cl)c1 (some centres unmarked) [Example 13] | 0.803 |
| CC1(C)[C@H](NC(=O)c2ccc(N3CCN(CCOC4CCN(C(=O)CNc5ccc6nnn(C7CCC(=O)NC7=O)c(=O)c6c5)CC4)CC3)cc2)C(C)(C)[C@H]1Oc1ccc(C#N)c(Cl)c1 (some centres unmarked) [Example 31] | 0.852 |
| CC1(C)[C@H](NC(=O)c2ccc(N3CCN(CC4CCN(c5ccc6nnn(C7CCC(=O)NC7=O)c(=O)c6c5)CC4)CC3)cc2)C(C)(C)[C@H]1Oc1ccc(C#N)c(Cl)c1 (some centres unmarked) [Example 8] | 0.163 |

Alright, here's another compound for you.
[in] Given the compound CC1(C)[C@H](NC(=O)c2ccc(N3CCN(CCOC4CCN(C(=O)COc5ccc6nnn(C7CCC(=O)NC7=O)c(=O)c6c5)CC4)CC3)cc2)C(C)(C)[C@H]1Oc1ccc(C#N)c(Cl)c1 (some centres unmarked) [Example 32] , what is its reported CC50?
[out] 1.3

###

Biological target: Androgen receptor (AR) (Homo sapiens, UniProt P10275, T878A)
Construct: 5.5×10^5 LNCap cells were injected into each well of a 6-well plate; endogenous in cells; host or cells: LNCaP
Assay: Assessment of AR proteolytic activity (Western blotting of LNCap cell lysates)
Assay type: cell-based
Details: 24 hours of treatment, Western blotting quantified with Image J
outcome_measure: Degradation (1 μM treated in LNCaP, % AR remaining) (%)

| compound | system_name | test_value |
| --- | --- | --- |
| CC1(C)C(NC(=O)c2ccc(N3CCC4(CC3)CN(CC3CCN(c5ccc6c(=O)n(C7CCC(=O)NC7=O)nnc6c5)CC3)C4)nc2)C(C)(C)C1Oc1ccc(C#N)c(Cl)c1 (centres unmarked) [Example 173] | Androgen receptor (AR) (Homo sapiens, UniProt P10275, T878A) | 9 |
| CC1(C)C(NC(=O)c2ccc(N3CCC(CN4CC5(CCN(c6ccc7nnn(C8CCC(=O)NC8=O)c(=O)c7c6)CC5)C4)CC3)nc2)C(C)(C)C1Oc1ccc(C#N)c(Cl)c1 (centres unmarked) [Example 170] | Androgen receptor (AR) (Homo sapiens, UniProt P10275, T878A) | 16 |
| CC1(C)[C@H](NC(=O)c2ccc(C3CCN(CC4CCN(C(=O)C5CCN(c6ccc7nnn(C8CCC(=O)NC8=O)c(=O)c7c6)CC5)CC4)CC3)cc2)C(C)(C)[C@H]1Oc1ccc(C#N)c(Cl)c1 (some centres unmarked) [Example 51] | Androgen receptor (AR) (Homo sapiens, UniProt P10275, T878A) | 10.4 |
| CC1(C)[C@H](NC(=O)c2ccc(-c3cnn(C4CCN(CC5CCN(C(=O)C6CN(c7ccc8nnn(C9CCC(=O)NC9=O)c(=O)c8c7)C6)CC5)CC4)c3)cc2)C(C)(C)[C@H]1Oc1ccc(C#N)c(Cl)c1 (some centres unmarked) [Example 83] | Androgen receptor (AR) (Homo sapiens, UniProt P10275, T878A) | 43 |
| CC1(C)C(NC(=O)c2ccc(N3CC[C@H](CN4CC5(CCN(c6ccc7nnn(C8CCC(=O)NC8=O)c(=O)c7c6)CC5)C4)C3)nc2)C(C)(C)C1Oc1ccc(C#N)c(Cl)c1 (some centres unmarked) [Example 186] | Androgen receptor (AR) (Homo sapiens, UniProt P10275, T878A) | 11 |
| CC1(C)C(NC(=O)c2ccc(N3CCN(CC4(O)CCN(C(=O)C5CN(c6ccc7nnn(C8CCC(=O)NC8=O)c(=O)c7c6)C5)CC4)CC3)cc2)C(C)(C)C1Oc1ccc(C#N)c(Cl)c1 (centres unmarked) [Example 56] | Androgen receptor (AR) (Homo sapiens, UniProt P10275, T878A) | 21.3 |

1: CC1(C)C(NC(=O)c2ccc(N3CCN(C=C4CCN(C(=O)C5CN(c6ccc7nnn(C8CCC(=O)NC8=O)c(=O)c7c6)C5)CC4)CC3)cc2)C(C)(C)C1Oc1ccc(C#N)c(Cl)c1 (centres unmarked) [Example 66]
2: CC1(C)[C@H](NC(=O)c2ccc(C#CC3CCN(C(=O)CNc4ccc5nnn(C6CCC(=O)NC6=O)c(=O)c5c4)CC3)cc2)C(C)(C)[C@H]1Oc1ccc(C#N)c(Cl)c1 (some centres unmarked) [Example 143]
[in] For the two items 1 and 2 , which reports the higher Degradation (1 μM treated in LNCaP, % AR remaining) value? Selection: enter the item's label.
[out] 1
(1: 35%, 2: 18%)

###

Biological target: Androgen receptor (AR) (Homo sapiens, UniProt P10275, T878A)
Construct: 5.5×10^5 LNCap cells were injected into each well of a 6-well plate; endogenous in cells; host or cells: LNCaP
Test: Assessment of AR proteolytic activity (Western blotting of LNCap cell lysates)
Type: cell-based
Conditions: 24 hours of treatment, Western blotting quantified with Image J
outcome_measure: Degradation (1 μM treated in LNCaP, % AR remaining) (%)

Example results:
| molecule | unit_label | test_value |
| --- | --- | --- |
| CC1(C)C(NC(=O)c2ccc(N3CC4CC3CN4C3CC4(CCN(C(=O)C5CCN(c6ccc7nnn(C8CCC(=O)NC8=O)c(=O)c7c6)CC5)CC4)C3)cc2)C(C)(C)C1Oc1ccc(C#N)c(Cl)c1 (stereo not shown) | % | 37 |
| CC1(C)[C@H](NC(=O)c2ccc(N3CCN(CCC4CCN(c5ccc6nnn(C7CCC(=O)NC7=O)c(=O)c6c5)CC4)CC3)cc2)C(C)(C)[C@H]1Oc1ccc(C#N)c(Cl)c1 (stereo partly shown) | % | 6 |
| CC1(C)C(NC(=O)c2ccc(N3CC[C@@H](CN4CC5(CCN(c6ccc7nnn(C8CCC(=O)NC8=O)c(=O)c7c6)CC5)C4)C3)nc2)C(C)(C)C1Oc1ccc(C#N)c(Cl)c1 (stereo partly shown) | % | 21 |
| CC1(C)C(NC(=O)c2ccc(OCCOCCOCCOCCOCCOCCOCCCCNc3cccc4nnn(C5CCC(=O)NC5=O)c(=O)c34)cc2)C(C)(C)C1Oc1ccc(C#N)c(Cl)c1 (stereo not shown) | % | 66 |
| CC1(C)C(NC(=O)c2ccc(N3CCC(CN4CC5(CCN(c6ccc7c(=O)n(C8CCC(=O)NC8=O)nnc7c6)CC5)C4)CC3)nc2)C(C)(C)C1Oc1ccc(C#N)c(Cl)c1 (stereo not shown) | % | 16 |
| N#Cc1ccc(O[C@H]2CC[C@H](NC(=O)c3ccc(N4CCC(CN5CC6(CCN(c7ccc8nnn(C9CCC(=O)NC9=O)c(=O)c8c7)CC6)C5)CC4)nc3)CC2)cc1Cl (stereo partly shown) | % | 10 |

1: CC1(C)C(NC(=O)c2ccc(OCCOCCOCCOCCOCCOCCCCNC(=O)CNc3cccc4nnn(C5CCC(=O)NC5=O)c(=O)c34)cc2)C(C)(C)C1Oc1ccc(C#N)c(Cl)c1 (stereo not shown)
2: CC1(C)[C@H](NC(=O)c2ccc(N3CCN(CCC4CCN(c5cccc6nnn(C7CCC(=O)NC7=O)c(=O)c56)CC4)CC3)cc2)C(C)(C)[C@H]1Oc1ccc(C#N)c(Cl)c1 (stereo partly shown)
[in] For the two items 1 and 2 , which reports the higher Degradation (1 μM treated in LNCaP, % AR remaining) value? Selection: enter the item's label.
[out] 2
(2: 69%, 1: 35.3%)
